# Tested on: HUVEC/MSC spheroids viability
# Test: Human HUVEC/MSC cell line growth inhibition [KRAS2];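 note: percent of DMSO vehicle control luminescence so 100% = untreated viability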
# Condition parameters: second compound 3.16 µM; first compound 0.316 µM; stronger effect = lower value
# From the text: Multicellular complex tumor spheroid response to RAS pathway inhibitors in combination with a targeted agents in patient-derived cell lines with oncogenic KRAS variants from multiple cancer types A high-throughput screen of multi-cell type tumor spheroids was designed to identify active combinations of targeted small molecules and KRAS pathway inhibitors. […] Compounds. […] If the clinical Cmax for an agent had not been determined, the highest concentration tested was 10 microM. […]
Recorded endpoint: viability, T/C (%)
Numeric only. Scale: %

(Q) Given CC1OCC2(CCN(c3cnc(Sc4ccnc(N)c4Cl)c(N)n3)CC2)C1N (stereo not given) + C=CC(=O)N1CCN(c2nc(=O)n(-c3c(C)ccnc3C(C)C)c3nc(-c4c(O)cccc4F)c(F)cc23)C(C)C1 , respond with its viability, T/C.
(A) 111

(Q) Given Cn1nccc1Nc1nccc(-c2cc3c(s2)C(C)(C)N(CCN2CCOCC2)C3=O)n1 + COc1cc2nc(C)nc(NC(C)c3cc(N)cc(C(F)(F)F)c3)c2cc1OC1CCOC1 , respond with its viability, T/C.
(A) 121

(Q) Given CCN1CCN(Cc2ccc(Nc3ncc(F)c(-c4cc(F)c5nc(C)n(C(C)C)c5c4)n3)nc2)CC1 + C=CC(=O)N1CCN(c2nc(=O)n(-c3c(C)ccnc3C(C)C)c3nc(-c4c(O)cccc4F)c(F)cc23)C(C)C1 , respond with its viability, T/C.
(A) 138

(Q) Given CC(C)NCC(C(=O)N1CCN(c2ncnc3c2C(C)CC3O)CC1)c1ccc(Cl)cc1 (stereo not given) + C=CC(=O)N1CCN(c2nc(=O)n(-c3c(C)ccnc3C(C)C)c3nc(-c4c(O)cccc4F)c(F)cc23)C(C)C1 , respond with its viability, T/C.
(A) 86.6

(Q) Given O=C(c1cc(Cc2n[nH]c(=O)c3ccccc23)ccc1F)N1CCN(C(=O)C2CC2)CC1 + COc1cc2nc(C)nc(NC(C)c3cc(N)cc(C(F)(F)F)c3)c2cc1OC1CCOC1 , respond with its viability, T/C.
(A) 93

* * *

# Test system: HUVEC/MSC spheroids viability
# Test: Human HUVEC/MSC cell line growth inhibition [KRAS2];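 note: percent of DMSO vehicle control luminescence so 100% = untreated viability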
# Condition parameters: second compound 3.16 µM; first compound 0.316 µM; stronger effect = lower value
I'd be grateful if you could share measured viability, T/C for these entries.
Numeric only. Scale: %

(Q) Given CCN1CCN(Cc2ccc(Nc3ncc(F)c(-c4cc(F)c5nc(C)n(C(C)C)c5c4)n3)nc2)CC1 + CC1OCC2(CCN(c3cnc(Sc4ccnc(N)c4Cl)c(N)n3)CC2)C1N , respond with its viability, T/C.
(A) 96.2

(Q) Given CC1(C)CCC(CN2CCN(c3ccc(C(=O)NS(=O)(=O)c4ccc(NCC5CCOCC5)c([N+](=O)[O-])c4)c(Oc4cnc5[nH]ccc5c4)c3)CC2)=C(c2ccc(Cl)cc2)C1 + COc1cc2nc(C)nc(NC(C)c3cc(N)cc(C(F)(F)F)c3)c2cc1OC1CCOC1 , respond with its viability, T/C.
(A) 110

(Q) Given CCNC(=O)CC1N=C(c2ccc(Cl)cc2)c2cc(OC)ccc2-n2c(C)nnc21 (centres undefined) + CC1OCC2(CCN(c3cnc(Sc4ccnc(N)c4Cl)c(N)n3)CC2)C1N , respond with its viability, T/C.
(A) 81.4

(Q) Given O=C(c1cc(Cc2n[nH]c(=O)c3ccccc23)ccc1F)N1CCN(C(=O)C2CC2)CC1 + CNCc1ccccc1-c1csc(C(C)Nc2nc(C)nc3cc(OC)c(OC)cc23)c1 , respond with its viability, T/C.
(A) 98.2

(Q) Given COc1cc(Nc2ncc3c(n2)-c2ccc(Cl)cc2C(c2c(F)cccc2OC)=NC3)ccc1C(=O)O + CC1OCC2(CCN(c3cnc(Sc4ccnc(N)c4Cl)c(N)n3)CC2)C1N , respond with its viability, T/C.
(A) 72.4

(Q) Given CC1(C)CCC(CN2CCN(c3ccc(C(=O)NS(=O)(=O)c4ccc(NCC5CCOCC5)c([N+](=O)[O-])c4)c(Oc4cnc5[nH]ccc5c4)c3)CC2)=C(c2ccc(Cl)cc2)C1 + CC1OCC2(CCN(c3cnc(Sc4ccnc(N)c4Cl)c(N)n3)CC2)C1N , respond with its viability, T/C.
(A) 93

(Q) Given CC(C)NCC(C(=O)N1CCN(c2ncnc3c2C(C)CC3O)CC1)c1ccc(Cl)cc1 (centres undefined) + CC1OCC2(CCN(c3cnc(Sc4ccnc(N)c4Cl)c(N)n3)CC2)C1N , respond with its viability, T/C.
(A) 58.3

(Q) Given COc1cc2nccc(Oc3ccc(NC(=O)C4(C(=O)Nc5ccc(F)cc5)CC4)cc3)c2cc1OC + C=CC(=O)N1CCN(c2nc(=O)n(-c3c(C)ccnc3C(C)C)c3nc(-c4c(O)cccc4F)c(F)cc23)C(C)C1 , respond with its viability, T/C.
(A) 129

(Q) Given CC1(C)CCC(CN2CCN(c3ccc(C(=O)NS(=O)(=O)c4ccc(NCC5CCOCC5)c([N+](=O)[O-])c4)c(Oc4cnc5[nH]ccc5c4)c3)CC2)=C(c2ccc(Cl)cc2)C1 + C=CC(=O)N1CCN(c2nc(=O)n(-c3c(C)ccnc3C(C)C)c3nc(-c4c(O)cccc4F)c(F)cc23)C(C)C1 , respond with its viability, T/C.
(A) 104
